Hey, just so you know, these numbers are from patent US9067949B2.

- Assayed system: UniProt P50406
- Sequence (P50406 whole entry): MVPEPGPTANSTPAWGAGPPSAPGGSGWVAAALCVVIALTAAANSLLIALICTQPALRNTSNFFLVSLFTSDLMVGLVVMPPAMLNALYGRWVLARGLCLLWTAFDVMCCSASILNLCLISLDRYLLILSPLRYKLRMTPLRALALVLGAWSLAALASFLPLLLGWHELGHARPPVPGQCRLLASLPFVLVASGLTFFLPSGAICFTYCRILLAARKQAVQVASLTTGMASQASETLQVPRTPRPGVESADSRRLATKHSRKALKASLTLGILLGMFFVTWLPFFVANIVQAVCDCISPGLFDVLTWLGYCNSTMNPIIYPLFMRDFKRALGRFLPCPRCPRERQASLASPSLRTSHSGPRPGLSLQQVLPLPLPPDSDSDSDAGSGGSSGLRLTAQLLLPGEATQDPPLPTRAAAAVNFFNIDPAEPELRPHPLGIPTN
- Method summary: 5-HT6 radioligand binding assay (SPA format, [N-methyl-3H]-LSD)
- Run conditions: human 5-HT6 receptor membranes, 10 nM [N-methyl-3H]-LSD; Ki by Cheng-Prusoff; read-out: human 5HT6 Ki
Where a name gives a salt, the structure may show the parent alone.
Measured metric: log10 Ki (log10 of the value in nM)

{"columns": ["Molecule", "log10 Ki"],
 "data": [
  ["COc1cc(S(=O)(=O)c2cn(C)c3ccccc23)cc2c3c(oc12)CCNC3", -0.80],
  ["O=S(=O)(c1cc(Cl)c2oc3c(c2c1)CNCC3)c1ccccc1CO", 0.73],
  ["COc1cc(S(=O)(=O)c2cccc(OC(F)F)c2)cc2c3c(oc12)CCNC3", -0.96],
  ["COc1cc(S(=O)(=O)c2cc(F)cc(Cl)c2)cc2c3c(oc12)CCNC3", -0.96],
  ["COc1cc(S(=O)(=O)c2cccc(C(O)C(F)(F)F)c2)cc2c3c(oc12)CCNC3 (stereo not shown)", -0.49],
  ["COc1cc([S+]([O-])c2ccccc2)cc2c3c(oc12)CCNC3 (stereo not shown) [Example 233]", 0.38],
  ["O=S(=O)(c1ccccc1)c1cc(Cl)c2oc3c(c2c1)CC(O)CC3 (single isomer, unassigned; (+)) [Example 99]", 0.00],
  ["Cl.OC(c1ccccc1)c1cc(Cl)c2oc3c(c2c1)CNCC3 (stereo not shown) [Example 94, hydrochloride]", 2.16],
  ["COc1cc(S(=O)(=O)c2ccc3sccc3c2)cc2c3c(oc12)CCNC3", -0.80],
  ["COc1cc(S(=O)(=O)c2ccccc2)cc2c3c(oc12)CCC(O)C3 (stereo not shown)", -0.23],
  ["COc1cc(S(=O)(=O)c2cccc(Cl)c2)cc2c3c(oc12)CCNC3", -1.30],
  ["O=S(=O)(c1ccc(CO)cc1)c1cc(Cl)c2oc3c(c2c1)CNCC3 [Example 72, hydrochloride]", 1.08],
  ["O=S(=O)(c1ccccc1)c1cc(Cl)c2oc3c(c2c1)CNC(CO)C3 (stereo not shown) [Example 86, hydrochloride]", 2.72],
  ["CN1CCc2oc3cc(S(=O)(=O)c4ccccc4)ccc3c2C1.Cl [Example 61, hydrochloride]", 1.26],
  ["O=S(=O)(c1cccc(Cl)c1)c1cc(Cl)c2oc3c(c2c1)CNCC3 [Example 46, hydrochloride]", -0.46],
  ["N#Cc1cc(S(=O)(=O)c2cccc(F)c2)cc2c3c(oc12)CCNC3 [Example 73, hydrochloride]", 0.63],
  ["Clc1cc(Cc2ccccc2)cc2c3c(oc12)CCNC3", 1.38],
  ["CC(O)c1cc(S(=O)(=O)c2ccccc2)cc2c3c(oc12)CCNC3 (stereo not shown)", 0.76],
  ["COc1cccc(S(=O)(=O)c2cc(Cl)c3oc4c(c3c2)CNCC4)c1", 0.08],
  ["Cl.O=S(=O)(c1cccc(Cl)c1)c1ccc2c3c(oc2c1)CC1CCC3N1 (stereo not shown) [Example 65, hydrochloride]", 2.19],
  ["COc1cc(S(=O)(=O)c2csc3ccccc23)cc2c3c(oc12)CCNC3", -1.00],
  ["COc1cc(S(=O)(=O)c2ccc(F)cc2)cc2c3c(oc12)CCNC3", -0.12],
  ["O=S(=O)(c1cccc(C2CCOC2)c1)c1cc(Cl)c2oc3c(c2c1)CNCC3 (stereo not shown) [Example 71, hydrochloride]", 0.30],
  ["O=S(=O)(c1cccnc1)c1cc(Cl)c2oc3c(c2c1)CNCC3", 1.41],
  ["COc1cc(S(=O)(=O)c2ccc(OC(F)F)cc2)cc2c3c(oc12)CCNC3", -0.40],
  ["O=S(=O)(c1cc(F)cc(F)c1)c1cc(Cl)c2oc3c(c2c1)CNCC3", 1.00],
  ["Cl.O=S(=O)(c1ccc2c3c(oc2c1)CC1CCC3N1)n1ccc2ccccc21 (stereo not shown) [Example 67, hydrochloride]", 1.53],
  ["O=S(=O)(c1ccccc1)c1cc(-c2cn[nH]c2)c2oc3c(c2c1)CNCC3 [Example 77, hydrochloride]", 1.45],
  ["CCN1CCc2oc3c(Cl)cc(S(=O)(=O)c4ccccc4)cc3c2C1", 0.08],
  ["CN1CCc2oc3c(Cl)cc(S(=O)(=O)c4ccccc4)cc3c2C1", 0.00],
  ["CN(C)C(=O)c1cc(S(=O)(=O)c2ccccc2)cc2c3c(oc12)CCNC3", 3.05],
  ["CCOc1cc(S(=O)(=O)c2ccccc2)cc2c3c(oc12)CCNC3", -0.96],
  ["COc1cc(S(=O)(=O)c2ccc3c(c2)CCOC3)cc2c3c(oc12)CCNC3", -0.32],
  ["COc1cc(S(=O)(=O)c2ccc([C@H](C)O)cc2)cc2c3c(oc12)CCNC3", 0.93]
]}
